All figures here come from paper PMC10301092.

Readings of Ki for the listed molecules
Target: κ opioid receptor (KOR) (Homo sapiens, UniProt P41145)
Sequence (P41145 whole entry): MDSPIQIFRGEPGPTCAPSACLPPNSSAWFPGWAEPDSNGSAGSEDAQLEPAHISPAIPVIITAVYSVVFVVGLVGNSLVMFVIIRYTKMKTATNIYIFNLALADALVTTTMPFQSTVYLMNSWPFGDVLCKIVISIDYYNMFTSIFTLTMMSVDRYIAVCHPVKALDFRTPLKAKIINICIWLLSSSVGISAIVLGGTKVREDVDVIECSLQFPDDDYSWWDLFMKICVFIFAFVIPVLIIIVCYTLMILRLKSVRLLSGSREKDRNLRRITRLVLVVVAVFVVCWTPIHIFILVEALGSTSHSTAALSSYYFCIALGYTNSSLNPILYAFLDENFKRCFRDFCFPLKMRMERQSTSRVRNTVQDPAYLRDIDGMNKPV
Test: KOR radioligand binding assay
Conditions: mean ± SD of at least two experiments in duplicate; read-out: Ki (nM) ± SD KOR
Express it in nM; write the number only.

>>> measured("C[C@H]1[C@H]2Cc3ccc(O)cc3[C@]1(C)CCN2CCCC(=O)Nc1ccccc1N [Compound 5]")
970

Moving on to the next molecule.
Per the reported κ opioid receptor (KOR) (Homo sapiens, UniProt P41145) data, C[C@@H]1[C@@H]2Cc3ccc(O)cc3[C@@]1(C)CCN2CCCC(=O)Nc1ccccc1N [Compound 6] has Ki of 2460

====

Molecular target: δ opioid receptor (DOR) (Homo sapiens, UniProt P41143)
Sequence (P41143 whole entry): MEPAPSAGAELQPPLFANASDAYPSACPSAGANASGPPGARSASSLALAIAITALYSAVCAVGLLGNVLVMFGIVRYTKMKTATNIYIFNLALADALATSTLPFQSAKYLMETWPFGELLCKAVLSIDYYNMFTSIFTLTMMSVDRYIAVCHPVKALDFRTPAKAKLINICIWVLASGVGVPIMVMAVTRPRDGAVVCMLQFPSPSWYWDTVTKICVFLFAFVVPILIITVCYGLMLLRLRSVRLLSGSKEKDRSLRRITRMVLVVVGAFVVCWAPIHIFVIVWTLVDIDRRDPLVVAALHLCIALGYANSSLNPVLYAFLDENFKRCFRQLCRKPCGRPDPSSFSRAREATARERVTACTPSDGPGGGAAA
Assay: DOR radioligand binding assay
Conditions: mean ± SD of at least two experiments in duplicate; read-out: Ki (nM) ± SD DOR
OBSERVED_PROPERTY: Ki (nM)
Numbers only; they are read as nM.

>>> measured("C[C@H]1[C@H]2Cc3ccc(O)cc3[C@]1(C)CCN2CCCC(=O)Nc1ccccc1N")
1030

Shift focus to the following entry.
The value of Ki measured for the molecule `C[C@@H]1[C@@H]2Cc3ccc(O)cc3[C@@]1(C)CCN2CCCC(=O)Nc1ccccc1N` turned out to be 4190

====

Molecular target: μ opioid receptor (MOR) (Homo sapiens)
Sequence (P35372 whole entry, species assumed): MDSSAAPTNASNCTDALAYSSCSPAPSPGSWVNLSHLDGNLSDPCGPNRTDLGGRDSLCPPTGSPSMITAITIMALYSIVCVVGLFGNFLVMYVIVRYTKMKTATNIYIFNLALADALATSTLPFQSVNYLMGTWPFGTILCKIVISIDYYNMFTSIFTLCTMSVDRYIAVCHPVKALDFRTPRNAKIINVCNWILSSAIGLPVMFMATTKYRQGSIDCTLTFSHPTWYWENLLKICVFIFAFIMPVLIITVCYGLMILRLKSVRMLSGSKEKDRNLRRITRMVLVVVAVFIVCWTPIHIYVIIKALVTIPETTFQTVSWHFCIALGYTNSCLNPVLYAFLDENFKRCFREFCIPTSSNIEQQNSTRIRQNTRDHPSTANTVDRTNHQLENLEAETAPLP
Assay: MOR radioligand binding assay
OBSERVED_PROPERTY: Ki
# output: number + unit

Reference set, count: 3
>>> measured("C[C@@H]1[C@@H]2Cc3ccc(O)cc3[C@@]1(C)CCN2CCC(=O)Nc1ccccc1N [Compound 4]")
"408 nM"
>>> measured("C[C@@H]1[C@@H]2Cc3ccc(O)cc3[C@@]1(C)CCN2CCC(=O)Nc1ccccn1 [Compound 8]")
"563 nM"
>>> measured("C[C@H]1[C@H]2Cc3ccc(O)cc3[C@]1(C)CCN2CCC(=O)Nc1ccccn1 [Compound 7]")
"1.49 nM"

Data point: C[C@H]1[C@H]2Cc3ccc(O)cc3[C@]1(C)CCN2CCC(=O)Nc1ccccc1N [Compound 3] ; Ki = 5.96 nM

====

Biological target: sigma-1 receptor (σ1R) (Homo sapiens)
Sequence (Q99720 whole entry, species assumed): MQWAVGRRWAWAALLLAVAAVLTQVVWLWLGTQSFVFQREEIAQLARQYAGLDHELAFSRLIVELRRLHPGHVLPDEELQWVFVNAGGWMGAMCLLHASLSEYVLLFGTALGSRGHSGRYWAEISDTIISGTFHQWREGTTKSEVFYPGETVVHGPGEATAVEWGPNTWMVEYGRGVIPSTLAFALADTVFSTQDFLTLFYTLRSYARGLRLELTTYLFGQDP
Experiment: σ1R radioligand binding assay
Listed next: entries and their corresponding pKi.
pKi field: float, defined as -log10 of concentration (mol/L).

>>> measured("C[C@@H]1[C@@H]2Cc3ccc(O)cc3[C@@]1(C)CCN2CCC(=O)Nc1ccccc1N")
6.14
>>> measured("C[C@@H]1[C@@H]2Cc3ccc(O)cc3[C@@]1(C)CCN2CCCC(=O)Nc1ccccc1N")
6.07

// `C[C@@H]1[C@@H]2Cc3ccc(O)cc3[C@@]1(C)CCN2CCC(=O)Nc1ccccn1` : pKi value = 5.60

====

Reported Ki by item:
Target: δ opioid receptor (DOR) (Homo sapiens, UniProt P41143)
Experiment: DOR radioligand binding assay
Give your result in nM as a bare value.

Consider `C[C@@H]1[C@@H]2Cc3ccc(O)cc3[C@@]1(C)CCN2CCC(=O)Nc1ccccc1N` . Its measured Ki is 3120

Lab book: Ki of `C[C@H]1[C@H]2Cc3ccc(O)cc3[C@]1(C)CCN2CCC(=O)Nc1ccccc1N` noted as 155

Ki in this record for `C[C@H]1[C@H]2Cc3ccc(O)cc3[C@]1(C)CCN2CCC(=O)Nc1ccccn1` : 138
